Tested on: Saccharomyces cerevisiae OKI.1282
method summary: minimal inhibitory concentration in Sabouraud medium
Format: cell-based
measurement setup: Saccharomyces cerevisiae, OKI.1282, 24 h, 24 hours
quantity name: MIC (µg/mL)
Just the number please, in µg/mL, no unit attached.

These recorded examples may help you get a feel for the data.
Value lookup for MIC; key = CC(=O)c1ccc(N2C(=O)CC(S(=O)(=O)C3CCCCC3)C2=O)cc1 (stereo not shown)
25

Value lookup for MIC; key = Cc1cccc(N2C(=O)CC(S(=O)(=O)C3CCCCC3)C2=O)c1 (stereo not shown)
25

Value lookup for MIC; key = O=C1CC(S(=O)(=O)C2CCCCC2)C(=O)N1c1ccccc1[N+](=O)[O-] (stereo not shown)
100

---
Value lookup for MIC; key = O=C1CC(S(=O)(=O)C2CCCCC2)C(=O)N1c1ccc([N+](=O)[O-])cc1 (stereo not shown)
25
